FYI, the data here is from PubChem BioAssay (NCATS).

biological target: Retinaldehyde dehydrogenase 3 (Homo sapiens); assay: qHTS for Inhibitors of the Aldehyde Dehydrogenase Family (ALDH1A3) Primary screen (AID 2061315); details: ALDH inhibition qHTS; series mostly up to 56 µM
Results filed as inconclusive are left out. The source made the active and inactive calls. The call rests on the fitted dose curve; in most records, active means well fitted inhibition curve with a large enough effect; inconclusive means small, poorly fitted or top-dose-only effect; inactive means no such curve, though single readings can be large or run the other way.

molecule	assaySystem	activity change, negative = inhibition
Cc1nc(NC2CCCCC2)c2nc(-c3ccccc3)n(C(C)CN(C)C)c2n1 (stereo not drawn)	Retinaldehyde dehydrogenase 3 (Homo sapiens)	inactive
CCOC(=O)c1ccc(-n2cnc3cc(C(=O)N4CCCCC4)ccc32)cc1	Retinaldehyde dehydrogenase 3 (Homo sapiens)	inactive
O=C(Nc1cncc(Cc2ccccc2)c1)c1ccc(-c2cccc([N+](=O)[O-])c2)o1	Retinaldehyde dehydrogenase 3 (Homo sapiens)	inactive

====

test: qHTS for Inhibitors of the Aldehyde Dehydrogenase Family (ALDH1A2, ALDH1A3, ALDH2, ALDH3A1) (AID 2061307); conditions: ALDH inhibition qHTS; series mostly up to 50.3 µM; further: nearly all actives have a fitted effect of over 50% in size
Results filed as inconclusive are left out. Activity calls are given as the source filed them. The call rests on the fitted dose curve; in most records, active means well fitted inhibition curve with a large enough effect; inconclusive means small, poorly fitted or top-dose-only effect; inactive means no such curve, though single readings can be large or run the other way.
Outcome codes: True (active), False (inactive)

structureNotation	assignedClass
CS(=O)(=O)c1nc(-c2ccc(Br)cc2)cs1	False
N#Cc1nc(Nc2cccc(Cl)c2)nc(NC2CCCC2)n1	True
O=C(O)c1ccc(S(=O)(=O)N[C@H](Cc2ccc(O)cc2)C(=O)O)cc1	False
OCc1ccc(-c2ccc3ncnc(NCCc4cnc[nH]4)c3c2)o1	False
Cc1cc(-c2nnc3n2CCCC3)c(C)n1-c1ccccc1	False

====

assay: BET inhibitor-based combinations targeting novel dependencies in MECOM-rearranged (r) AML: OCI-AML3 cell line (AID 2202232); settings: CellTiter-Glo luminescence, 48 h; OCI-AML3 viability; series mostly up to 46 µM; further: nearly all actives have a fitted effect of over 35% in size; further: potency means the concentration at half of the fitted maximal effect
Results filed as inconclusive are left out. Active and inactive are the calls of the source. Calls come from the whole dose curve; as a rule, active = well fitted inhibition curve with a large enough effect; inconclusive = small, poorly fitted or top-dose-only effect; inactive = no such curve, though single readings can be large or run the other way. Non-standard residues stand in square brackets, D forms with d. Residues, ends and D or L forms follow the SMILES beside them. *: point of attachment. Benzoyl(4-tBu) = CC(C)(C)c1ccc(C(=O)*)cc1; Lys(Et2) = CCN(CC)CCCC[C@H](N)C(=O)O

molecule	Potency
OC1CCC(Oc2cccc3cnc(Nc4ccc5nc[nH]c5c4)nc23)CC1 (stereo unspecified)	1.48 µM (active)
COc1ccnc(CS(=O)c2nc3ccc(OC(F)F)cc3[nH]2)c1OC (stereo unspecified)	23.5 µM (active)
CCN(C(=O)c1c(O)c2c(Cl)cccc2n(C)c1=O)c1ccccc1	13.2 µM (active)
O=C(CCCCCCNC(=O)c1cnc(N(c2ccccc2)c2ccccc2Cl)nc1)NO	7.42 µM (active)
CCN(CC)CCCC[C@H](NC(=O)[C@H](CC(C)C)NC(=O)[C@H](C)NC(=O)[C@H](Cc1ccccc1)NC(=O)c1ccc(C(C)(C)C)cc1)C(=O)N[C@@H](CO)C(=O)OC ({Benzoyl(4-tBu)}-FAL[Lys(Et2)]S-OMe)	inactive
CN(C(=O)c1c(O)c2ccccc2n(C)c1=O)c1ccccc1	inactive
COCCn1c2c([n+](Cc3cnccn3)c1C)C(=O)c1ccccc1C2=O	0.0525 µM (active)
C=C1CC[C@@H]2[C@](C)(CO)[C@H](O)CC[C@@]2(C)[C@@H]1C/C=C1/C(=O)OC[C@H]1O	3.72 µM (active)
C[C@@H]1COCCN1c1cc(-c2ccnn2C)c2ccnc(-c3ccn[nH]3)c2n1	0.0525 µM (active)
COc1cc(Nc2ncc(F)c(Nc3ccc4c(n3)N(COP(=O)(O)O)C(=O)C(C)(C)O4)n2)cc(OC)c1OC	inactive
C[C@@H]1C(=O)OC2[C@H](O)[C@]34[C@H]5C[C@@H](C(C)(C)C)[C@]36[C@@H](OC(=O)[C@@H]6O)O[C@@]4(C(=O)O5)[C@]21O (stereo partly specified)	inactive
Cc1nc2ccc(CN(C)c3ccc(C(=O)N[C@@H](CCC(=O)O)C(=O)O)s3)cc2c(=O)[nH]1	0.0468 µM (active)
COc1cc2c3c(n(CCCn4ccnc4)c(=O)c2cc1OC)-c1cc2c(cc1C3=O)OCO2	0.0372 µM (active)
CC(=O)CC(c1ccccc1)c1c(O)c2ccccc2oc1=O (stereo unspecified)	inactive
Cc1cc(C(=O)NOCCO)c(Nc2ccc(I)cc2F)n(C)c1=O	0.0059 µM (active)
CCCCCCCCCCCCCCCCCCCCCCO	inactive
CO[C@@H]1[C@@H](O)[C@H](O)[C@@H](n2c3c(Cl)cccc3c3c4c(c5c6cccc(Cl)c6[nH]c5c32)C(=O)NC4=O)O[C@H]1CO	1.32 µM (active)
Cc1ccc(NC(=O)NCc2ccc3c(c2)CN(C2CCC(=O)NC2=O)C3=O)cc1Cl (stereo unspecified)	0.003 µM (active)
N=C1S/C(=C\c2ccc(-c3ccc4c(c3)C(=O)NC4=O)o2)C(=O)N1c1ccc(Br)cc1	inactive
Nc1n[n+]([O-])c2ccccc2[n+]1[O-]	18.6 µM (active)
O=C(O)/C(S)=C/c1ccc(I)cc1	inactive
Cc1cc(-c2cnn3c(NCC4CC(C)(O)C4)cc(Oc4cccnc4)nc23)ccc1C(=O)NC1CC1 (stereo unspecified)	0.263 µM (active)
CCNCCc1ccc(CN(CC)c2cc(OC)ccc2[C@@H]2CCc3cc(O)ccc3C2)cc1	6.61 µM (active)
CN1CCN(c2ccc(Nc3ncc4cc(C#N)c(=O)n(C5CCCC5)c4n3)cc2)CC1	0.105 µM (active)
CCC[C@H](Nc1nc(-c2ccc(NC(=O)NCC)c(OC)c2)ncc1C)c1cccnc1	0.105 µM (active)
Cc1cc2cc(Oc3ccnc(Nc4cccc(CS(=O)(=O)NCCN(C)C)c4)n3)ccc2[nH]1	20.9 µM (active)
C#C[C@]1(O)CC[C@H]2[C@@H]3[C@H](C)CC4=C(CCC(=O)C4)[C@H]3CC[C@@]21C	16.6 µM (active)
COc1cc(OC)cc(N2CCN(C(=O)Nc3nc4cc(F)ccc4nc3OC)CC2)c1	1.05 µM (active)
C[C@]1(C(=O)N(CCCC(=O)O)Cc2cccc(Cl)c2)CCN1C(=O)c1csc2ccccc12	inactive
[O-][n+]1cccc(-c2nc3c(Cl)cccc3cc2[C@@H](Nc2ncnc3cccnc23)C(F)(F)F)c1	5.25 µM (active)
CCNc1cc(NC2CCC(O)CC2)nc(Nc2ccc3c(ccn3Cc3ccccc3)c2)n1 (stereo unspecified)	inactive

====

target: Aldehyde dehydrogenase, mitochondrial (Homo sapiens) (UniProt P05091); experiment: qHTS for Inhibitors of the Aldehyde Dehydrogenase Family (ALDH2) Primary screen (AID 2061308); conditions: ALDH2 enzyme inhibition qHTS, 1536-well; series mostly up to 56 µM; further: nearly all actives have a fitted effect of over 55% in size
Results filed as inconclusive are left out. Activity calls are given as the source filed them. The call rests on the fitted dose curve; in most records, active means well fitted inhibition curve with a large enough effect; inconclusive means small, poorly fitted or top-dose-only effect; inactive means flat fitted curve, though single readings scatter.

molecule	outcome
O=C(O)c1ccc(-c2nn3c(=O)cc(N4CCNCC4)nc3s2)cc1	inactive
COc1ccc(OC)c(C2=Nn3c(nnc3-c3cccc(OC)c3OC)SC2)c1	inactive
O=C(Cc1ccc2ccccc2c1)Nc1nnc(-c2ccncc2)s1	inactive
Cc1ccc(OCCn2c(CCNC(=O)Cc3ccccc3F)nc3ccccc32)cc1	inactive
CNc1nc(-c2cccc3ccccc23)ccc1C#N	inactive
O=C1CCCC2=C1C(c1ccccc1Br)N=C(Nc1nc3ccccc3o1)N2 (stereo unspecified)	inactive
C/C=C(\C)C(=O)OC1C(C)C2(O)C(C=C(CO)CC3(O)C(=O)C(C)=CC32)C2C(C)(C)C12OC(=O)C(C)C (stereo unspecified)	inactive
CC(C)(C)c1ccc(-c2ccc(=O)n(CC(=O)NCCc3ccccc3)n2)cc1	inactive
Cc1ccc(S(=O)(=O)Nc2ccccc2C(=O)Nc2nc(-c3ccccc3)co2)cc1	inactive
Cc1ccc(OCCn2c(CCNC(=O)/C=C/c3ccccc3Br)nc3ccccc32)cc1	inactive
COC(=O)c1ccc(O)c2ncc(NC3CCNCC3)cc12	inactive
COc1ccc(C2c3c(ncn(CCN4CCOCC4)c3=N)Oc3ccc4ccccc4c32)cc1OC (stereo unspecified)	inactive
O=C(OCC#CCSc1nnc(-c2cccc3ccccc23)o1)c1cccc(C(F)(F)F)c1	inactive
Cc1ccc(-c2cc(C(=O)Nc3ccc(-n4cncn4)cc3)c3ccccc3n2)cc1C	inactive
CCCn1c(C)nc2c(NCCN(C(C)C)C(C)C)nc(C)nc21	inactive
COc1cccc(CNc2ccc(S(=O)(=O)Nc3ccccc3)cc2)c1O	inactive
O=C1CCc2cc(S(=O)(=O)Nc3ccncc3)ccc2N1	inactive
CC(C)(C)N[S+](=O)([O-])c1cccc(-c2nnc(SCC(=O)Nc3ccc(C(=O)O)cc3)n2-c2ccccc2)c1	inactive
CC(=O)Nc1sc2c(c1-c1ccc(C)cc1)CCNC2	inactive
Cc1ccc(OCCn2c(CCNC(=O)c3cc([N+](=O)[O-])ccc3[N+](=O)[O-])nc3ccccc32)cc1	inactive
O=C(Nc1cncnc1)c1cccs1	inactive
N[C@H]1CCN(c2cnc3c(O)ccc(C(=O)O)c3c2)C1	inactive
Cc1cc(NC(=O)Nc2nnc(-c3ccncc3)s2)ccc1F	inactive
Cc1ccc(NC(=O)c2ccc3c(c2)CCC(=O)N3)cc1C	inactive
C/C=C(\C)C(=O)O[C@H]1C=C(CO)C(=O)[C@H](OC(C)=O)[C@H]1C(C)C	inactive
CCCCNc1nc(C)nc2c1nc(-c1ccccc1)n2CCN1CCCC1	inactive
Fc1cc(F)cc(Nc2nc(NC3CCCC3)nc(C3CO3)n2)c1 (stereo unspecified)	inactive
COc1ccc(CSc2nc3ncc(Br)cc3[nH]2)cc1F	inactive
C[C@@H]1CCN(C(=O)CC#N)C[C@@H]1N(C)c1ncnc2[nH]ccc12	inactive
N#Cc1nc(NCCCO)nc(Nc2ccccc2)n1	inactive
Cc1ccc(N2CCC(CNc3nc(-c4ccccc4C(C)C)ncc3C)CC2)cn1	inactive
CCn1cnc2c(Nc3cccc(Cl)c3)nc(C#N)nc21	inactive
O=C(OCC#CCSc1nnc(-c2ccc3ccccc3c2)o1)c1ccc(F)c(F)c1	inactive
N#CN1CCC(NC(=O)c2ccc(C(F)(F)F)cc2)CC1	inactive
O=C(OCC#CCSc1nnc(-c2cccc3ccccc23)o1)c1ccc(F)nc1	inactive
CC(C)(C#CCSc1nnc(-c2cccc3ccccc23)o1)OC(=O)c1ccc(F)cc1	inactive
